Each entry below carries its recorded inhibition at 20 µM.
Tested Target: Transferrin Receptors (Homo sapiens, UniProt P02786)
Sequence (P02786 whole entry): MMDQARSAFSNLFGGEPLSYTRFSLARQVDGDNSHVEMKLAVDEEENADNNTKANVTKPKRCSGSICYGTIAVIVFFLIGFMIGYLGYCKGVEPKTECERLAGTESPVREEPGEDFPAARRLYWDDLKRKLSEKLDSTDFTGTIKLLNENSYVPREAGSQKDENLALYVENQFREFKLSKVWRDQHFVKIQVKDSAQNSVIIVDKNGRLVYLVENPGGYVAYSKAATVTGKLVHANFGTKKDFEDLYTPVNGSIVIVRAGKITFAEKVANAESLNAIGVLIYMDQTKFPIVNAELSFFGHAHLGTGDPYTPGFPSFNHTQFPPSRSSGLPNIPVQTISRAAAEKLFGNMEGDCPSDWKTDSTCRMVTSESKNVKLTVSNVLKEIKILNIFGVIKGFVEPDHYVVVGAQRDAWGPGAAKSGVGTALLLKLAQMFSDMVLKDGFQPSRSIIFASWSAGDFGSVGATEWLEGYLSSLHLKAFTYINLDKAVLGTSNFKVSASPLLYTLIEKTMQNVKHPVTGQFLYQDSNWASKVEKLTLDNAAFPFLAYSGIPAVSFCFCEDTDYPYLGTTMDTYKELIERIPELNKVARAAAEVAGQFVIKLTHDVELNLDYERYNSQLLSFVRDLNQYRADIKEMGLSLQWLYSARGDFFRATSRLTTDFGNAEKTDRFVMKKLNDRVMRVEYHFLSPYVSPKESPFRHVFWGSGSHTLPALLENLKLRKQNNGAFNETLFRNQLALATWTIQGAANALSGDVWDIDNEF
Method Summary: Transferrin receptor binding assay of small molecules: inhibition of biotin-GA binding
Details: 0.75 h; Compounds tested at 20 μM; biotin-GA kept at 1 μM

Guide cases for inhibition at 20 µM, answers given:
Endpoint output: inhibition at 20 µM of C=CCC12OCC3CC4(Oc5ccccc5C(=O)C4=CC31)C2=O (stereo not drawn) [Example 18] . Value?
42%

What inhibition at 20 µM value was documented for this molecule, CC(C)=CCC12OC(C)(C)C3CC(C=C4C(=O)C=C(c5ccccc5)OC431)C2=O (stereo not drawn) [Example 31] ?
47%

// lookup inhibition at 20 µM for CC(C)=CCC12OC(C)(C)C3CC4(OC(c5ccccc5)=CC(=O)C4=CC31)C2=O (stereo not drawn) [Example 32]
61%

Could you share which inhibition at 20 µM value was measured for CC(C)=CCC12OC(C)(C)C3CC(C=C4C(=O)c5ccccc5OC431)C2=O (stereo not drawn) [Example 22] ?
51%

GET /values?readout=inhibition at 20 µM&item= C=CCC12OCC3CC(CC4C(=O)c5ccccc5OC341)C2=O (stereo not drawn) [Example 19]
0%

Attention now shifts to the item below.
Requested field: inhibition at 20 µM. Item: CC(C)=CCC12OC(C)(C)C3CC4(Oc5ccccc5C(=O)C4=CC31)C2=O (stereo not drawn) [Example 23]
59%

====

Test system: T-47D
Method Summary: Caspase cascade activation and induction of apoptosis in solid tumor cells
Assay type: cell-based, Human
Details: 48 h incubation, ratio of net RFU of test compound to control
Measure Name: Caspase activity (Ratio)
# output: bare number, no unit

State its Caspase activity (Ratio) on T-47D: CC(C)=CCC12OC(C)(C)C3CC4(Oc5ccccc5C(=O)C4=CC31)C2=O (stereo not drawn) [Example 23]
14.1

====

Overview of recorded inhibition at 20 µM for various compounds
Tested Target: UniProt:P02786
Method Summary: Transferrin receptor binding assay of small molecules: inhibition of biotin-GA binding
Details: 0.75 h; Compounds tested at 20 μM; biotin-GA kept at 1 μM
Give a bare numeral; the unit % is implied.

Quick one: inhibition at 20 µM of C=CCC12OCC3CC(C=C4C(=O)c5ccccc5OC431)C2=O (stereo not drawn) ?
52

New cases:
// query inhibition at 20 µM value for entry C=CCC12CC3COC(CC=C)(C1=O)C3(CC=C)C=C2C(=O)c1ccccc1 (stereo not drawn)
8

Bench note: what inhibition at 20 µM did C=CCC12C=C(C(=O)c3ccccc3)C3(CC=C)C(COC3(CC=C)C1=O)C2 (stereo not drawn) show?
11

====

Overview of recorded Caspase activity (Ratio) for various compounds
System: T-47D
Method Summary: Caspase cascade activation and induction of apoptosis in solid tumor cells
Assay type: cell-based, Human
Details: 48 h incubation, ratio of net RFU of test compound to control
Give your answer as a number; write no unit.

Solved entries:
Caspase activity (Ratio) lookup needed for C=CCC12CC3COC(CC=C)(C1=O)C3(CC=C)C=C2C(=O)c1ccccc1 (centres unmarked) [Example 28] , thanks.
1.3

Could you tell me which Caspase activity (Ratio) is on file for CC(C)=CCC12OC(C)(C)C3CC(C=C4C(=O)C=C(c5ccccc5)OC431)C2=O (centres unmarked) [Example 31] ?
11.4

Further cases:
Using the record for C=CCC12OCC3CC4(Oc5ccccc5C(=O)C4=CC31)C2=O (centres unmarked) [Example 18] , report its Caspase activity (Ratio).
2.9

Which Caspase activity (Ratio) reading was recorded for the compound CC(C)=CCC12OC(C)(C)C3CC4(OC(c5ccccc5)=CC(=O)C4=CC31)C2=O (centres unmarked) [Example 32] ?
10.6

# input compound: C=CCC12C=C(C(=O)c3ccccc3)C3(CC=C)C(COC3(CC=C)C1=O)C2 (centres unmarked) [Example 27] ; wanted: its Caspase activity (Ratio)
1.5
